# Test system: Hepatitis C virus
# measurement_protocol: Antiviral activity at Hepatitis C virus genotype 1b infected in human HuH7 cells assessed as inhibition of viral replication at 10 uM after 3 days by renilla luciferase reporter gene assay
# Type: functional, Hepacivirus hominis
# assay_setup: Huh-7, 72 h
Please mark YES if the recorded inhibition at 10 µM is equal to or greater than 10%, and NO if it falls below.

Query :: Has `O=C(O)c1cn(CCO)c2ccc(I)cc2c1=O` a recorded inhibition at 10 µM greater than or equal to 10%?
Result :: YES

Query :: Has `O=C(O)c1cn(CCO)c2ccc(-c3ccco3)cc2c1=O` a recorded inhibition at 10 µM greater than or equal to 10%?
Result :: YES

Query :: Has `CC(=O)c1ccc(-c2ccc3c(c2)c(=O)c(C(=O)O)cn3CCO)s1` a recorded inhibition at 10 µM greater than or equal to 10%?
Result :: NO

Query :: Has `O=C(O)c1cn(CCO)c2cc(-c3cc4ccccc4o3)ccc2c1=O` a recorded inhibition at 10 µM greater than or equal to 10%?
Result :: YES

Query :: Has `COc1ccc(-c2ccc3c(c2)c(=O)c(C(=O)O)cn3CCO)cc1` a recorded inhibition at 10 µM greater than or equal to 10%?
Result :: NO

Query :: Has `O=C(O)c1cn(Cc2ccccc2)c2ccc(I)cc2c1=O` a recorded inhibition at 10 µM greater than or equal to 10%?
Result :: NO

Query :: Has `O=C(O)c1cn(CCCO)c2cc(-c3cccs3)ccc2c1=O` a recorded inhibition at 10 µM greater than or equal to 10%?
Result :: YES

Query :: Has `NC(=O)c1ncn([C@@H]2O[C@H](CO)[C@@H](O)[C@H]2O)n1` a recorded inhibition at 10 µM greater than or equal to 10%?
Result :: YES

Query :: Has `O=C(O)c1cn(CCCO)c2ccc(-c3cc4ccccc4o3)cc2c1=O` a recorded inhibition at 10 µM greater than or equal to 10%?
Result :: YES

Query :: Has `O=C(O)c1cn(CCO)c2ccc(-c3cc4ccccc4o3)cc2c1=O` a recorded inhibition at 10 µM greater than or equal to 10%?
Result :: YES

Query :: Has `O=C(O)c1cn(CCO)c2cc(-c3cccs3)ccc2c1=O` a recorded inhibition at 10 µM greater than or equal to 10%?
Result :: YES

Query :: Has `O=C(O)c1cnc2ccc(I)cc2c1O` a recorded inhibition at 10 µM greater than or equal to 10%?
Result :: YES

Query :: Has `CCCn1cc(C(=O)O)c(=O)c2cc(-c3cc4ccccc4o3)ccc21` a recorded inhibition at 10 µM greater than or equal to 10%?
Result :: NO

###

# measurement_protocol: Therapeutic index, ratio of CC50 for human HuH7 cells to EC50 for Hepatitis C virus genotype 1b
# Type: cell-based, Huh-7
# assay_setup: read-out: Ratio CC50/EC50
assay_readout: selectivity ratio
# respond with the number and nothing more

Query :: Entry `O=C(O)c1cn(CCO)c2ccc(-c3cc4ccccc4s3)cc2c1=O` has what selectivity ratio?
Result :: 2.5

Query :: Entry `O=C(O)c1cn(CCO)c2ccc(-c3cc4ccccc4o3)cc2c1=O` has what selectivity ratio?
Result :: 5.9

Query :: Entry `O=C(O)c1cn(CCCO)c2ccc(-c3cc4ccccc4o3)cc2c1=O` has what selectivity ratio?
Result :: 1.1

###

# measurement_protocol: Cytotoxicity against human HuH7 cells assessed as cell viability after 3 days by CellTiter Glo assay
# Type: cell-based, Huh-7
assay_readout: CC50 at 72 h (µM)
Form entry: value (µM) — number only.

Query :: Entry `O=C(O)c1cn(CCO)c2ccc(-c3cc4ccccc4o3)cc2c1=O` has what CC50 at 72 h?
Result :: 34

Query :: Entry `O=C(O)c1cn(CCO)c2ccc(-c3cc4ccccc4s3)cc2c1=O` has what CC50 at 72 h?
Result :: 15

Query :: Entry `O=C(O)c1cn(CCCO)c2ccc(-c3cc4ccccc4o3)cc2c1=O` has what CC50 at 72 h?
Result :: 25

###

Provide the reported viability at 72 h, 10 µM of each item.
# measurement_protocol: Cytotoxicity against human HuH7 cells assessed as cell viability at 10 uM after 3 days by CellTiter Glo assay
# Format: cell-based, Huh-7
# assay_setup: read-out: Activity
Form entry: value (%) — number only.

Query :: Entry `O=C(O)c1cn(CCO)c2ccc(-c3cc4ccccc4o3)cc2c1=O` has what viability at 72 h, 10 µM?
Result :: 100

Query :: Entry `O=C(O)c1cn(CCO)c2ccc(-c3ccco3)cc2c1=O` has what viability at 72 h, 10 µM?
Result :: 100

Query :: Entry `CCCn1cc(C(=O)O)c(=O)c2cc(-c3cc4ccccc4o3)ccc21` has what viability at 72 h, 10 µM?
Result :: 91
